Each recorded value in this set is attributed to paper PMC11813896.

Target: recombinant hMAO-A (Homo sapiens, UniProt P21397)
Construct: purchased Sigma-Aldrich
Sequence (P21397 whole entry): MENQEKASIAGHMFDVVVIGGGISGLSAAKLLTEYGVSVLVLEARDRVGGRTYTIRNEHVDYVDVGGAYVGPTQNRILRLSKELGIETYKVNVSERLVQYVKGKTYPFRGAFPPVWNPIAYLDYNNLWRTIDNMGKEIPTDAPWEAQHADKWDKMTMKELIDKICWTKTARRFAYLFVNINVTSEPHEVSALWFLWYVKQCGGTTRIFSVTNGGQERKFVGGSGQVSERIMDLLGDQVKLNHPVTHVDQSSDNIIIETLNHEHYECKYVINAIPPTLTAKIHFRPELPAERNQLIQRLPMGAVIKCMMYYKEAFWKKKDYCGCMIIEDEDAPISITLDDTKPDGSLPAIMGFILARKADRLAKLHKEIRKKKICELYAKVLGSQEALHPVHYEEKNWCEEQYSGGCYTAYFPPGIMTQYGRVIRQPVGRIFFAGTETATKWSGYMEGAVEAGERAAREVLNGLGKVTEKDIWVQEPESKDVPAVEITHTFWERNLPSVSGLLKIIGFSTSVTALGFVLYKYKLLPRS
Assay: biochemical
ENDPOINT NAME: S.I. Selectivity index IC50(hMAO-B)/IC50(hMAO-A)
Answers are plain numbers.

Recorded results for 3 compounds are shown here.
SMILES ENTRY | TEST TARGET | VALUE
C=CCn1c2cc(OCCCCCCCOc3ccc4c5ccnc(C)c5n(CC=C)c4c3)ccc2c2ccnc(C)c21 | recombinant hMAO-A (Homo sapiens, UniProt P21397) | 0.2
CCCn1c2cc(OCCCCCCCCOc3ccc4c5ccnc(C)c5n(CCC)c4c3)ccc2c2ccnc(C)c21 | recombinant hMAO-A (Homo sapiens, UniProt P21397) | 9.5
Cc1nccc2c3ccc(OCCCCCCOc4ccc5c6ccnc(C)c6n(C)c5c4)cc3n(C)c12 | recombinant hMAO-A (Homo sapiens, UniProt P21397) | 7.1

Let's switch to this compound now.
Quick one: S.I. Selectivity index IC50(hMAO-B)/IC50(hMAO-A) of CCn1c2cc(OCCCCCCCOc3ccc4c5ccnc(C)c5n(CC)c4c3)ccc2c2ccnc(C)c21 ?
0.5

* * *

Target: UniProt:P05067
Assay: Thioflavin T fluorescence assay, Aβ 1−42 self-aggregation
Type: biochemical
Conditions: compound at 20 μM
Experimental: The thioflavin T (Th-T) fluorescence assay was used to assess the inhibition of Aβ 1−42 self-aggregation. […] Subsequently, the reaction was terminated to a final volume of 200 μL using Th-T (10 μM) solution.
Consider the following compounds; for each one, report its inhibition percent ratio of self-induced Aβ 1-42 aggregation.
Give bare numbers, in %.

Recorded results for 5 compounds are shown here.
COMPOUND | VALUE
CCn1c2cc(OCCCCCCCOc3ccc4c5ccnc(C)c5n(CC)c4c3)ccc2c2ccnc(C)c21 [Compound 7b] | 29.6
CCn1c2cc(OCCCCCOc3ccc4c5ccnc(C)c5n(CC)c4c3)ccc2c2ccnc(C)c21 [Compound 5b] | 31.8
CCCn1c2cc(OCCCCCCOc3ccc4c5ccnc(C)c5n(CCC)c4c3)ccc2c2ccnc(C)c21 [Compound 6c] | 35.8
CCn1c2cc(OCCCCOc3ccc4c5ccnc(C)c5n(CC)c4c3)ccc2c2ccnc(C)c21 [Compound 4b] | 27.6
C=CCn1c2cc(OCCCCOc3ccc4c5ccnc(C)c5n(CC=C)c4c3)ccc2c2ccnc(C)c21 [Compound 4d] | 35.5

Report inhibition percent ratio of self-induced Aβ 1-42 aggregation for each item below.
1. CCn1c2cc(OCCCCCCOc3ccc4c5ccnc(C)c5n(CC)c4c3)ccc2c2ccnc(C)c21 [Compound 6b]
2. Cc1nccc2c3ccc(OCCCCCOc4ccc5c6ccnc(C)c6n(C)c5c4)cc3n(C)c12 [Compound 5a]
3. C=CCn1c2cc(OCCCCCOc3ccc4c5ccnc(C)c5n(CC=C)c4c3)ccc2c2ccnc(C)c21 [Compound 5d]
4. CCCn1c2cc(OCCCCCOc3ccc4c5ccnc(C)c5n(CCC)c4c3)ccc2c2ccnc(C)c21 [Compound 5c]
5. CCCn1c2cc(OCCCCOc3ccc4c5ccnc(C)c5n(CCC)c4c3)ccc2c2ccnc(C)c21 [Compound 4c]
6. Cc1nccc2c3ccc(OCCCCOc4ccc5c6ccnc(C)c6n(C)c5c4)cc3n(C)c12 [Compound 4a]

1. 40.2
2. 40.6
3. 43.6
4. 29.4
5. 33.2
6. 39.3

* * *

Target: hBuChE (Homo sapiens, UniProt P06276)
Sequence (P06276 29-602): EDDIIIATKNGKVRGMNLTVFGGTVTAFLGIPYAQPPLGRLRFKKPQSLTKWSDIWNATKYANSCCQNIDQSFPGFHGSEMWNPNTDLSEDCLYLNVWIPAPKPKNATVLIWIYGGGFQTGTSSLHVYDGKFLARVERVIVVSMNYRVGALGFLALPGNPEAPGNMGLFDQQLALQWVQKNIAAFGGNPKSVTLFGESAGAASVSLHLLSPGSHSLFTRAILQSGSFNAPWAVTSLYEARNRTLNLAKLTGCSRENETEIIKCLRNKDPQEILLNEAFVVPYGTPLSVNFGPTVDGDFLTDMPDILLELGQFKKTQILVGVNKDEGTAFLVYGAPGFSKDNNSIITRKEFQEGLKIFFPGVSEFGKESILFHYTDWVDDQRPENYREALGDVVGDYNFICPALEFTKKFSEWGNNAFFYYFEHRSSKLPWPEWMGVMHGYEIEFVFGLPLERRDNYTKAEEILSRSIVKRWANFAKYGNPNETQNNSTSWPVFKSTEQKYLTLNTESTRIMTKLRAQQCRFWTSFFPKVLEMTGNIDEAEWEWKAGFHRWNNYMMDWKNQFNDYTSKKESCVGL
Test: Ellman's assay, hBuChE inhibition
Assay type: biochemical
Settings: compound at 1 μM; read-out: inhibition of hBuChE in primary screening
ENDPOINT NAME: inhibition at 1 µM
# output: number + unit

COMPOUND | inhibition at 1 µM
CCn1c2cc(OCCCCCCCOc3ccc4c5ccnc(C)c5n(CC)c4c3)ccc2c2ccnc(C)c21 [Compound 7b] | 36.5%
CCCn1c2cc(OCCCCCCCCOc3ccc4c5ccnc(C)c5n(CCC)c4c3)ccc2c2ccnc(C)c21 [Compound 8c] | 43.4%
CCCn1c2cc(OCCCCCOc3ccc4c5ccnc(C)c5n(CCC)c4c3)ccc2c2ccnc(C)c21 [Compound 5c] | 45.6%

Let's switch to this compound now.
Quick one: inhibition at 1 µM of Cc1nccc2c3ccc(OCCCCCCCCOc4ccc5c6ccnc(C)c6n(C)c5c4)cc3n(C)c12 [Compound 8a] ?
39.1%

* * *

Target: recombinant hMAO-A (Homo sapiens)
Construct: purchased Sigma-Aldrich
Test: biochemical
Consider the following compounds; for each one, report its S.I. Selectivity index IC50(hMAO-B)/IC50(hMAO-A).
Numbers only.

SMILES ENTRY | VALUE
C=CCn1c2cc(OCCCCCCOc3ccc4c5ccnc(C)c5n(CC=C)c4c3)ccc2c2ccnc(C)c21 | 0.5
Cc1nccc2c3ccc(OCCCCCCCOc4ccc5c6ccnc(C)c6n(C)c5c4)cc3n(C)c12 | 40.1
CCn1c2cc(OCCCCCCCCOc3ccc4c5ccnc(C)c5n(CC)c4c3)ccc2c2ccnc(C)c21 | 11.5
CCCn1c2cc(OCCCCCCOc3ccc4c5ccnc(C)c5n(CCC)c4c3)ccc2c2ccnc(C)c21 | 25.2

Let's switch to this compound now.
Quick one: S.I. Selectivity index IC50(hMAO-B)/IC50(hMAO-A) of Cc1nccc2c3ccc(OCCCCCCCCOc4ccc5c6ccnc(C)c6n(C)c5c4)cc3n(C)c12 ?
10.0

* * *

Target: recombinant hMAO-A (Homo sapiens, UniProt P21397)
Construct: purchased Sigma-Aldrich
Assay: biochemical
Details: compound at 1 μM; read-out: inhibition of hMAO-A in primary screening
Procedure: Briefly, the compounds under investigation and the reference inhibitor were preincubated with kynuramine at 37°C for 10 min in 96-well microplates. […] Subsequently, the concentrations of MAOs that produced 4-hydroxyquinoline were determined by measuring the fluorescence of the supernatant using a Varioskan Flash Multimode Reader ([…]) with excitation and emission wavelengths set at 310 nm and 400 nm, respectively. […]
ENDPOINT NAME: inhibition at 1 µM (%)
Give bare numbers, in %.

COMPOUND | VALUE
CCCn1c2cc(OCCCCCOc3ccc4c5ccnc(C)c5n(CCC)c4c3)ccc2c2ccnc(C)c21 [Compound 5c] | 39.5
C=CCn1c2cc(OCCCCOc3ccc4c5ccnc(C)c5n(CC=C)c4c3)ccc2c2ccnc(C)c21 [Compound 4d] | 49.3
C=CCn1c2cc(OCCCCCOc3ccc4c5ccnc(C)c5n(CC=C)c4c3)ccc2c2ccnc(C)c21 [Compound 5d] | 41.1
Cc1nccc2c3ccc(OCCCCOc4ccc5c6ccnc(C)c6n(C)c5c4)cc3n(C)c12 [Compound 4a] | 41.5

Report inhibition at 1 µM for each item below.
1. CCn1c2cc(OCCCCCOc3ccc4c5ccnc(C)c5n(CC)c4c3)ccc2c2ccnc(C)c21 [Compound 5b]
2. CCCn1c2cc(OCCCCOc3ccc4c5ccnc(C)c5n(CCC)c4c3)ccc2c2ccnc(C)c21 [Compound 4c]

[42.4, 48.6]

* * *

Molecular target: Aβ 1−42 (Homo sapiens, UniProt P05067)
Sequence (P05067 672-713 limits assumed): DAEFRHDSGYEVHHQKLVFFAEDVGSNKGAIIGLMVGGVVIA
Assay: Thioflavin T fluorescence assay, Aβ 1−42 self-aggregation
Format: biochemical
Settings: Aβ 1-42 20 μM, 37°C, 24 h
Consider the following compounds; for each one, report its IC50.
Answers are plain numbers, in µM.

SMILES ENTRY | READOUT UNIT | IC50
CCCn1c2cc(OCCCCCCCOc3ccc4c5ccnc(C)c5n(CCC)c4c3)ccc2c2ccnc(C)c21 | µM | 13.3

Report IC50 for each item below.
1. CCCn1c2cc(OCCCCCCCCOc3ccc4c5ccnc(C)c5n(CCC)c4c3)ccc2c2ccnc(C)c21
2. Cc1nccc2c3ccc(OCCCCCCCCOc4ccc5c6ccnc(C)c6n(C)c5c4)cc3n(C)c12
3. Cc1nccc2c3ccc(OCCCCCCOc4ccc5c6ccnc(C)c6n(C)c5c4)cc3n(C)c12
4. C=CCn1c2cc(OCCCCCCOc3ccc4c5ccnc(C)c5n(CC=C)c4c3)ccc2c2ccnc(C)c21
5. C=CCn1c2cc(OCCCCCCCCOc3ccc4c5ccnc(C)c5n(CC=C)c4c3)ccc2c2ccnc(C)c21

[19.3, 16.5, 19.8, 14.1, 9.2]

* * *

Target: UniProtKB P22303
Sequence (P22303 32-614): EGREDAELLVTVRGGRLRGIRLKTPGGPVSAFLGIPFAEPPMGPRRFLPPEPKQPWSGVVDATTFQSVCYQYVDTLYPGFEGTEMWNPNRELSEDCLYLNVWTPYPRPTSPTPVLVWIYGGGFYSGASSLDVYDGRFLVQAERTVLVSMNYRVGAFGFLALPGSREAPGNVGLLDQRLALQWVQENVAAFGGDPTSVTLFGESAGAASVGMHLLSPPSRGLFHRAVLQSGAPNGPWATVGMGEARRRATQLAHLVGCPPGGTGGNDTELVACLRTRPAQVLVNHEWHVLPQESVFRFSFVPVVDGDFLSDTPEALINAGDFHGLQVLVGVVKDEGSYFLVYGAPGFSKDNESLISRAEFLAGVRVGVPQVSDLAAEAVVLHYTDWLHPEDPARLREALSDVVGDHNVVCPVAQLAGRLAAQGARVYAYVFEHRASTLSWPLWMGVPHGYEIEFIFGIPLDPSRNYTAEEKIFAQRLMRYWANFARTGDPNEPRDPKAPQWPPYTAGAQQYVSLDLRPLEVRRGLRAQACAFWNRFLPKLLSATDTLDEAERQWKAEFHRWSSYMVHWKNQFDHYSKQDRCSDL
Assay: biochemical
Settings: Mean ± SD from 3-5 assays; read-out: IC50 (nM) for cholinesterase hAChE
Consider the following molecules; for each one, report its IC50.
Give bare numbers, in nM.

Recorded results for 3 molecules are shown here.
SMILES ENTRY | READOUT UNIT | IC50
C=CCn1c2cc(OCCCCCCCOc3ccc4c5ccnc(C)c5n(CC=C)c4c3)ccc2c2ccnc(C)c21 | nM | 896
CCCn1c2cc(OCCCCOc3ccc4c5ccnc(C)c5n(CCC)c4c3)ccc2c2ccnc(C)c21 | nM | 68
Cc1nccc2c3ccc(OCCCCCCCOc4ccc5c6ccnc(C)c6n(C)c5c4)cc3n(C)c12 | nM | 226

Report IC50 for each item below.
1. CCn1c2cc(OCCCCCCCOc3ccc4c5ccnc(C)c5n(CC)c4c3)ccc2c2ccnc(C)c21
2. CCn1c2cc(OCCCCCCCCOc3ccc4c5ccnc(C)c5n(CC)c4c3)ccc2c2ccnc(C)c21
3. CCCn1c2cc(OCCCCCCOc3ccc4c5ccnc(C)c5n(CCC)c4c3)ccc2c2ccnc(C)c21
4. C=CCn1c2cc(OCCCCCOc3ccc4c5ccnc(C)c5n(CC=C)c4c3)ccc2c2ccnc(C)c21

1. 386
2. 324
3. 82.1
4. 288

Report IC50 for each item below.
1. CCn1c2cc(OCCCCCOc3ccc4c5ccnc(C)c5n(CC)c4c3)ccc2c2ccnc(C)c21
2. C=CCn1c2cc(OCCCCCCCCOc3ccc4c5ccnc(C)c5n(CC=C)c4c3)ccc2c2ccnc(C)c21
3. CCn1c2cc(OCCCCCCOc3ccc4c5ccnc(C)c5n(CC)c4c3)ccc2c2ccnc(C)c21
4. Cc1nccc2c3ccc(OCCCCCOc4ccc5c6ccnc(C)c6n(C)c5c4)cc3n(C)c12
5. CCCn1c2cc(OCCCCCOc3ccc4c5ccnc(C)c5n(CCC)c4c3)ccc2c2ccnc(C)c21
6. CCCn1c2cc(OCCCCCCCOc3ccc4c5ccnc(C)c5n(CCC)c4c3)ccc2c2ccnc(C)c21
7. Cc1nccc2c3ccc(OCCCCCCOc4ccc5c6ccnc(C)c6n(C)c5c4)cc3n(C)c12
8. CCn1c2cc(OCCCCOc3ccc4c5ccnc(C)c5n(CC)c4c3)ccc2c2ccnc(C)c21

[115, 963, 652, 827, 73.8, 39.2, 493, 101]

Report IC50 for each item below.
1. CCCn1c2cc(OCCCCCCCCOc3ccc4c5ccnc(C)c5n(CCC)c4c3)ccc2c2ccnc(C)c21
2. C=CCn1c2cc(OCCCCCCOc3ccc4c5ccnc(C)c5n(CC=C)c4c3)ccc2c2ccnc(C)c21

1: 158; 2: 54.3
